molecular target: Arginase-2, mitochondrial (Homo sapiens) (UniProt P78540); test: in vitro enzyme assay to detect the production of urea directly proportional to the activity of Arginase II; assay type: functional; design: scale not given: in the data most compounds retested in dose-response had high values; conditions: 33.3 µM
Sequence (P78540 whole entry): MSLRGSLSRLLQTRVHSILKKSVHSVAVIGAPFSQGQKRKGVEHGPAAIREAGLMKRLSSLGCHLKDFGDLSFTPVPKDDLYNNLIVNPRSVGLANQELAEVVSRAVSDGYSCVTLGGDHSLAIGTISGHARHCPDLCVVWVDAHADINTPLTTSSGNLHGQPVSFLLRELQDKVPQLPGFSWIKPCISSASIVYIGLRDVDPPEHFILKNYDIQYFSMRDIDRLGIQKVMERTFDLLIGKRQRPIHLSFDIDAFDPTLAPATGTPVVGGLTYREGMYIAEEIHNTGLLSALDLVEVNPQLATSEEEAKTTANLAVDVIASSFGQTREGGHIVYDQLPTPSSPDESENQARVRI
METRIC_NAME: Percent Effect (%)

{"columns": ["COMPOUND", "METRIC_NAME", "REPORTED"],
 "data": [
  ["Cc1nn(C)c2sc(C(=O)N3CCCC(n4ccnc4C)C3)cc12 (configuration not stated)", "Percent Effect", -5.92],
  ["Fc1ccc(CN2CCO[C@H]3[C@H](OCC4CC4)CC[C@@H]32)cc1", "Percent Effect", -41.4],
  ["O=S(=O)(Cc1ccccc1)NCC1CCN(c2cnccn2)CC1", "Percent Effect", -3.23],
  ["Cn1cc(CN2CC3(CCN(C(=O)c4ccoc4)C3)C2)cn1", "Percent Effect", -1.6],
  ["c1ncn(CC2CN(CC3CCCC3)CCO2)n1 (configuration not stated)", "Percent Effect", 6.24],
  ["COc1cc2cc(C(=O)O)n(C)c2cc1OC", "Percent Effect", -10],
  ["CCn1nc(CNC(=O)C2CC(=O)N(C3CCCC3)C2)c2ccccc21 (configuration not stated)", "Percent Effect", -2.86],
  ["CCc1noc(C(C)N2CCN(Cc3noc(C)n3)CC2)n1 (configuration not stated)", "Percent Effect", -4.21],
  ["CS(=O)(=O)c1ccc(CNCC2CCN(CCO)CC2)cc1", "Percent Effect", -3.64],
  ["CCS(=O)(=O)N1C[C@H]2CN(Cc3cccnc3)C(=O)[C@H]2C1", "Percent Effect", 0],
  ["O=C(c1ccc(Cl)o1)N1CCCN(Cc2cscn2)CC1", "Percent Effect", -2.74],
  ["CN(Cc1cn2c(n1)CN(C(=O)CC1CC1)CC2)Cc1ccco1", "Percent Effect", 8.16]
]}

---

target: Proteasome subunit beta (Trypanosoma cruzi); assay: Trypanosoma cruzi proteasome chymotrypsin-like activity (TcProtChymo) assay.; format: functional; parameters: scale not given: in the data most compounds retested in dose-response had high values; settings: 9.37 µM

{"columns": ["COMPOUND", "Percent Effect"],
 "data": [
  ["Cc1nc(CN2CCCN(C(=O)c3ccccn3)CC2)oc1C", "10.8%"],
  ["CCOc1ncccc1CNC(=O)N1CCCC1c1ccncc1 (configuration not stated)", "8.37%"],
  ["Cc1cc(=O)n2ncnc2n1CC(O)c1cc(F)ccc1F (configuration not stated)", "15.6%"],
  ["Cc1cnc(CNC(=O)NCc2cccnc2N(C)C)s1", "-5.07%"],
  ["Cc1cc(-c2nnc(SCC(=O)O)n2C(C)c2ccccc2)nn1C (configuration not stated)", "14.9%"],
  ["Cn1ccnc1CN1CCN(CC(=O)NCC(F)(F)F)CC1", "0%"],
  ["NC(=O)COc1ccc(CNCc2ccc(F)c(F)c2)cc1", "11.2%"],
  ["O=C(CCc1cc(O)no1)N1CCCC(COc2ccc(F)cc2)C1 (configuration not stated)", "14%"],
  ["CC(C)(C)c1ccc(C2(C(=O)NCCS(N)(=O)=O)CC2)cc1", "8.98%"],
  ["Fc1ccc(-c2nnc(CN3CCCC3Cn3cncn3)o2)cc1 (configuration not stated)", "7.26%"],
  ["CCCc1noc(CCC(=O)N2CCCC2c2noc(C3CC3)n2)n1 (configuration not stated)", "-1.56%"],
  ["CCCNC(=O)CCC(=O)Nc1ccc(-n2cncn2)c(F)c1", "-0.501%"]
]}

Entry source: ChEMBL document CHEMBL3988442
